- assay name: qHTS profiling for inhibitors of Plasmodium falciparum proliferation (AID 504749);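 also: 0% = DMSO vehicle and full inhibition = artemisinin control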
- details: P. falciparum in erythrocytes, SYBR Green DNA, 72 h; at 28.7 µM (top of the series); parasite line B
- Protocol: NIH National Institute of Allergy and Infectious Diseases [NIAID] NIH Chemical Genomics Center [NCGC] […] Because mature erythrocytes lack DNA, only Plasmodium-derived DNA is detected. NCGC Assay Protocol Summary: The SYBR Green viability assay was adapted from a method described previously (Plouffe et al., 2008). […] The following morning, fluorescence intensity at 485(14) nm excitation and 535(25) nm emission wavelengths was measured on an EnVision (Perkin Elmer) plate reader. […]
Inconclusive results are not listed.
property label: activity, negative = inhibition (%)
// units = %; emit number, no label

compound	property label	readout units	data value
CC(C)(C)C(=O)Oc1ccc(S(=O)(=O)Nc2ccccc2C(=O)NCC(=O)O)cc1	activity, negative = inhibition	%	7.95
CCC1(c2ccccc2)C(=O)NCNC1=O	activity, negative = inhibition	%	11.7
CS(=O)(=O)CCNCc1ccc(-c2ccc3ncnc(Nc4ccc(OCc5cccc(F)c5)c(Cl)c4)c3c2)o1	activity, negative = inhibition	%	-5.13

Per the record, CC(C)NCC(O)COc1ccc(CCOCC2CC2)cc1 (stereo not given) has activity, negative = inhibition of -3.18

Per the record, CC(C)Cc1ccc(C(C)C(=O)O)cc1 (stereo not given) has activity, negative = inhibition of 6.46

Per the record, CC12CC3CC(C)(C1)CC(N)(C3)C2 has activity, negative = inhibition of 1.67

Per the record, CCOC(=O)c1ncn2c1CN(C)C(=O)c1cc(F)ccc1-2 has activity, negative = inhibition of 17

Per the record, CN(CCOc1ccc(NS(C)(=O)=O)cc1)CCc1ccc(NS(C)(=O)=O)cc1 has activity, negative = inhibition of 5.56

Per the record, O=c1[nH]cc(F)c(=O)[nH]1 has activity, negative = inhibition of -26.3

Per the record, COC(=O)Nc1nc2ccc(C(=O)c3cccs3)cc2[nH]1 has activity, negative = inhibition of 11.2

Per the record, CC(=O)OCC(CCn1cnc2cnc(N)nc21)COC(C)=O has activity, negative = inhibition of 0.392

Per the record, CC(C)(Oc1ccc(C2CC2(Cl)Cl)cc1)C(=O)O (stereo not given) has activity, negative = inhibition of 2.45

Per the record, COc1cc2c(c(OC)c1OC)-c1ccc(OC)c(=O)cc1[C@@H](NC(C)=O)CC2 has activity, negative = inhibition of 6.74

Per the record, CN1CCC(=C2c3ccccc3C=Cc3ccccc32)CC1 has activity, negative = inhibition of 3.94

Per the record, CN1CCN2c3ccccc3Cc3ccccc3C2C1 (stereo not given) has activity, negative = inhibition of 3.33

Per the record, COc1ccc2[nH]cc(CCNC(C)=O)c2c1 has activity, negative = inhibition of 12.1

Per the record, CC(C)C(=O)Nc1ccc([N+](=O)[O-])c(C(F)(F)F)c1 has activity, negative = inhibition of 10.3

Per the record, Cn1c(=O)c2c(ncn2C)n(C)c1=O has activity, negative = inhibition of 8.5

Per the record, CN(C)CCOC(c1ccccc1)c1ccccc1 has activity, negative = inhibition of 11.2

Values compiled from PubChem BioAssay (NCATS).
